Experimental target: P2X purinoceptor 7 (Homo sapiens, UniProt Q99572)
Sequence (Q99572 whole entry): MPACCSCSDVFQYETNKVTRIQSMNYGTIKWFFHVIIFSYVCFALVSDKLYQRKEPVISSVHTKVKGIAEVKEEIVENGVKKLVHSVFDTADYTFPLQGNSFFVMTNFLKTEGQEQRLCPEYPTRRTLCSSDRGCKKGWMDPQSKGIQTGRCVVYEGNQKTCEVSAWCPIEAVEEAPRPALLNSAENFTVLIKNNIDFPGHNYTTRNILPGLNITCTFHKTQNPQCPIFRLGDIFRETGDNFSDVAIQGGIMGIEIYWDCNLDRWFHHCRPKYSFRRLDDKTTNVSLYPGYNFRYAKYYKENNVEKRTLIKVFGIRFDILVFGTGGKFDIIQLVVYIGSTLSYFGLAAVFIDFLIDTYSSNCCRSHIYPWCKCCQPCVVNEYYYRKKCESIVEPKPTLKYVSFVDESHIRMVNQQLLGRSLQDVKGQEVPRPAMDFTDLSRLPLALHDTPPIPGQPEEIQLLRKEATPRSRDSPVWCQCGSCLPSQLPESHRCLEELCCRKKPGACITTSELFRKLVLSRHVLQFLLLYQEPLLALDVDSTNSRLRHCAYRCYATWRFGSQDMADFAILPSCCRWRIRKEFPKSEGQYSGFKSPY
Measurement notes: Antagonist activity at human cloned P2X7 receptor expressed in HEK293 cells assessed as inhibition of calcium flux by FLIPR assay
Assay type: functional, cell-based
pIC50: −log10 of the molar value.
Some compounds, each annotated with its measured pIC50.
Observation type: pIC50

• COc1ccc(CC(=O)NC(NC(=S)Nc2ccccc2C)C(Cl)(Cl)Cl)cc1OC (stereo not drawn) = 7.00
• COc1ccc(CC(=O)NC(N/C(=N/C#N)Nc2cccc(F)c2F)C(C)(C)C)cc1OC (stereo not drawn) = 6.50
• COc1ccc(CC(=O)NC(N=C(NC#N)Nc2ccc(F)c(F)c2)C(C)(C)C)cc1OC (stereo not drawn) = 6.10
• Cc1ccccc1N/C(=N\C#N)NC(NC(=O)Cc1ccccc1)C(C)(C)C (stereo not drawn) = 4.50
• COc1ccc(CC(=O)NC(N/C(=N/C#N)Nc2c(F)cccc2F)C(C)(C)C)cc1OC (stereo not drawn) = 6.70
• COc1ccc(CC(=O)NC(N=C(NC#N)NCc2ccccc2Cl)C(C)(C)C)cc1OC (stereo not drawn) = 6.20
• COc1ccc(CC(=O)NC(N/C(=N/C#N)Nc2ccc(F)cc2F)C(C)(C)C)cc1OC (stereo not drawn) = 6.60
• COc1ccc(CC(=O)NC(N/C(=N/C#N)Nc2cccnc2C)C(C)(C)C)cc1OC (stereo not drawn) = 6.60
• Cc1ncccc1NC(=NC#N)NC(NC(=O)CCCCc1ccccc1)C(C)(C)C (stereo not drawn) = 7.20
• COc1ccc(C(=O)NC(N=C(NC#N)Nc2ccccc2C)C(C)(C)C)cc1OC (stereo not drawn) = 5.30
• Cc1ccccc1N/C(=N\C#N)NC(NC(=O)Cc1ccc(Cl)cc1)C(C)(C)C (stereo not drawn) = 7.20
• COc1ccc(CCC(=O)NC(N/C(=N/C#N)Nc2ccccc2C)C(C)(C)C)cc1 (stereo not drawn) = 6.40
• CC(C)(C)C(NC(=O)Cc1cccc2ccccc12)NC(=NC#N)Nc1cccc2ncccc12 (stereo not drawn) = 7.50
• COc1ccc(CC(=O)NC(N=C(NC#N)Nc2cc(Cl)ccc2F)C(C)(C)C)cc1OC (stereo not drawn) = 7.10
• COc1ccc(CC(=O)NC(N/C(=N/C#N)Nc2cc(F)ccc2F)C(C)(C)C)cc1OC (stereo not drawn) = 7.00
• CC(C)(C)C(NC(=O)Cc1ccc(Cl)cc1)N/C(=N/C#N)Nc1cccc2ncccc12 (stereo not drawn) = 8.00
• COc1ccc(CC(=O)NC(N=C(NC#N)Nc2cc(C)ccc2C)C(C)(C)C)cc1OC (stereo not drawn) = 7.20
• COc1ccc(CC(=O)NC(N=C(NC#N)Nc2ccc(C)cc2)C(C)(C)C)cc1OC (stereo not drawn) = 5.70
• Cc1ncccc1N/C(=N\C#N)NC(NC(=O)Cc1ccc(F)cc1)C(C)(C)C (stereo not drawn) = 7.00
• CC(Cl)(Cl)C(NC(=O)c1ccc(Cl)cc1)NC(=NC#N)Nc1cccnc1Cl (stereo not drawn) = 7.20
• CCCCCC(=O)NC(N=C(NC#N)Nc1ccccc1C)C(C)(C)C (stereo not drawn) = 6.10
• COc1ccc(CC(=O)NC(NC(=NC#N)Nc2ccccc2Cl)C(C)(C)C)cc1OC (stereo not drawn) = 7.20
• COc1ccc(NC(=NC#N)NC(NC(=O)c2ccc(Cl)cc2)C(C)(Cl)Cl)c(OC)n1 (stereo not drawn) = 7.30
